Attribution: ChEMBL document CHEMBL5058577

- Tested on: Fibroblast
- Assay info: Multiplex assay against human fibroblast
- Type: toxicity, cell-based
- Condition summary: 48 h, 1 µM, compound concentration 1 uM, replicate 1
Readout type: Population Membrane Permeable-Phenotype (%)

INSERT INTO assay_data (compound, unit_tag, recorded_number) VALUES
  ('Cc1noc(-c2ccc(-c3ccc(CC(=O)O)cc3)cc2)c1NC(=O)O[C@H](C)c1ccccc1Cl', '%', 1),
  ('Cc1c(CC(=O)O)c2cccnc2n1Cc1ccc(S(C)(=O)=O)cc1C(F)(F)F', '%', 0),
  ('CCCCCC(O)/C=C/[C@H]1C(=O)CC(O)C1C/C=C\CCCC(=O)O (stereo partly specified)', '%', 0),
  ('N#Cc1cc(F)cc(-c2nc(-c3ccc(F)cn3)no2)c1', '%', 0),
  ('CCCCC(=O)N(Cc1ccc(-c2ccccc2-c2nnn[nH]2)cc1)[C@H](C(=O)O)C(C)C', '%', 0),
  ('Cc1sc2c(c1C)C(c1ccc(Cl)cc1)=N[C@@H](CC(=O)NCCCCCCCCNC(=O)COc1cccc3c1C(=O)N(C1CCC(=O)NC1=O)C3=O)c1nnc(C)n1-2 (stereo partly specified)', '%', 0),
  ('COc1cccc2c1c(NS(=O)(=O)c1ccc(Cl)s1)nn2Cc1cccc(CNC(=O)C(C)(C)O)c1', '%', 1),
  ('CC[C@@H](C)Nc1nc(C)nc2c(-c3ccc(OC)nc3C)c(C)nn12', '%', 1),
  ('Cc1onc(-c2ccccc2Cl)c1C(=O)N(C)c1ccc(Cl)cc1', '%', 0),
  ('CN1CCN(c2cc(-c3ccccc3)nc(N)n2)CC1', '%', 0),
  ('CN[C@@H](C)C(=O)N[C@H](C(=O)N1CCC[C@H]1C(=O)Nc1snnc1-c1ccccc1)C1CCCCC1', '%', 0),
  ('Cc1cccc(NC(=O)CN2CCC(c3ccccn3)CC2)c1.Cl.Cl', '%', 1),
  ('CN(C)C(=O)Cn1cc(-c2ccc(-c3cncc4ccccc34)cc2)cn1', '%', 3),
  ('O=C(NCCN1CCC(n2c(=O)[nH]c3cc(Cl)ccc32)CC1)c1ccc(F)cc1 [HALOPEMIDE]', '%', 4),
  ('CC(/C=C1\SC(=S)N(CCCC(=O)Nc2ccc(C(=O)O)c(O)c2)C1=O)=C\c1ccccc1', '%', 1),
  ('Br.CS(=O)(=O)Nc1c(O)ccc2c1CCCC2C1=NCCN1 (stereo unspecified)', '%', 4);

====

- Test system: Fibroblast
- Assay info: Multiplex assay against human fibroblast
- Format: toxicity, cell-based
- Condition summary: 48 h, 1 µM, compound concentration 1 uM, replicate 1
Readout type: Population Mitochondria Different-Phenotype (%)

INSERT INTO assay_data (compound, recorded_number) VALUES
  ('Cc1cnc(-c2cc(N3CCN(C(=O)CCS(C)(=O)=O)CC3)ncc2Cl)c(C)c1', 1),
  ('CCCCC(=O)N(Cc1ccc(-c2ccccc2-c2nnn[nH]2)cc1)[C@H](C(=O)O)C(C)C', 1),
  ('CN[C@@H](C)C(=O)N[C@H](C(=O)N1CCC[C@H]1C(=O)Nc1snnc1-c1ccccc1)C1CCCCC1', 1),
  ('CC(C)COc1ccc(CNC(=O)N(Cc2ccc(F)cc2)C2CCN(C)CC2)cc1', 3),
  ('O=C(NCCN1CCC(n2c(=O)[nH]c3cc(Cl)ccc32)CC1)c1ccc(F)cc1 [HALOPEMIDE]', 7),
  ('Cc1onc(-c2ccccc2Cl)c1C(=O)N(C)c1ccc(Cl)cc1', 1),
  ('CCc1cc2cc(NS(=O)(=O)c3ccc(C#N)cc3)ccc2n(CC)c1=O', 4),
  ('NCCc1cn(S(=O)(=O)c2c(Cl)nc3sccn23)c2ccccc12.O=C(O)C(=O)O', 3),
  ('N#Cc1c(Oc2cccc(OS(=O)(=O)CCCC(F)(F)F)c2)cccc1C(F)(F)F', 5),
  ('Cl.N=C(N)NC(=O)Cc1c(Cl)cccc1Cl [GUANFACINE HYDROCHLORIDE]', 6),
  ('Br.CS(=O)(=O)Nc1c(O)ccc2c1CCCC2C1=NCCN1 (stereo unspecified)', 3);

====

- Tested on: U2OS
- Assay info: Multiplex assay against U2OS
- Assay type: toxicity, cell-based
- Condition summary: human, 12 h, 1 µM, compound concentration 1 uM, replicate 2
Readout type: Population Mitochondria Different-Phenotype (%)

INSERT INTO assay_data (compound, recorded_number) VALUES
  ('O=C(CCCc1ccccc1)Nc1nc2ccccc2c(=O)s1', 3),
  ('Cl.NCCc1ccc(O)c(O)c1 [DOPAMINE HYDROCHLORIDE]', 2),
  ('N#Cc1cc(F)cc(-c2nc(-c3ccc(F)cn3)no2)c1', 5),
  ('Cl.N=C(N)NC(=O)Cc1c(Cl)cccc1Cl [GUANFACINE HYDROCHLORIDE]', 2),
  ('O=C(NCCN1CCC(n2c(=O)[nH]c3cc(Cl)ccc32)CC1)c1ccc(F)cc1 [HALOPEMIDE]', 2);

====

- Test system: Fibroblast
- Assay info: Multiplex assay against human fibroblast
- Assay type: toxicity, cell-based
- Condition summary: 24 h, 10 µM, compound concentration 10 uM, replicate 1
Readout type: Population Healthy Nuclei (%)

INSERT INTO measurements (compound, target_system, recorded_number) VALUES
  ('C[C@H](N)COC(=O)[C@@H](CCCCN)NC(=O)Cc1c(-c2ccc3ccccc3c2)[nH]c2c1ccc1ccccc12', 'Fibroblast', 74),
  ('CC(C)COc1ccc(CNC(=O)N(Cc2ccc(F)cc2)C2CCN(C)CC2)cc1 [PIMAVANSERIN]', 'Fibroblast', 67),
  ('NCCc1cn(S(=O)(=O)c2c(Cl)nc3sccn23)c2ccccc12.O=C(O)C(=O)O', 'Fibroblast', 62),
  ('COc1cccc2c1c(NS(=O)(=O)c1ccc(Cl)s1)nn2Cc1cccc(CNC(=O)C(C)(C)O)c1', 'Fibroblast', 74),
  ('Cc1sc2c(c1C)C(c1ccc(Cl)cc1)=N[C@@H](CC(=O)NCCCCCCCCNC(=O)COc1cccc3c1C(=O)N(C1CCC(=O)NC1=O)C3=O)c1nnc(C)n1-2 (stereo partly drawn)', 'Fibroblast', 38),
  ('CCCOc1ccc2[nH]cc(C3=CCNCC3)c2n1.Cl', 'Fibroblast', 64),
  ('CC(/C=C1\SC(=S)N(CCCC(=O)Nc2ccc(C(=O)O)c(O)c2)C1=O)=C\c1ccccc1', 'Fibroblast', 81),
  ('COC[C@@H](c1ccc(C(F)(F)F)cc1)N1CCN(C2(C)CCN(C(=O)c3c(C)ncnc3C)CC2)C[C@@H]1C.O=C(O)/C=C\C(=O)O [VICRIVIROC MALEATE]', 'Fibroblast', 64);

====

- System: U2OS
- Assay info: Multiplex assay against U2OS
- Format: toxicity, cell-based
- Condition summary: human, 12 h, 10 µM, compound concentration 10 uM, replicate 2
Listed next: entries and their corresponding Population Mitotic Cells (%).
Readout type: Population Mitotic Cells (%)

INSERT INTO assay_data (compound, readout_type, recorded_number) VALUES
  ('Cc1cnc(-c2cc(N3CCN(C(=O)CCS(C)(=O)=O)CC3)ncc2Cl)c(C)c1', 'Population Mitotic Cells (%)', 25),
  ('Cc1noc(-c2ccc(-c3ccc(CC(=O)O)cc3)cc2)c1NC(=O)O[C@H](C)c1ccccc1Cl', 'Population Mitotic Cells (%)', 28),
  ('CN1CCN(c2cc(-c3ccccc3)nc(N)n2)CC1', 'Population Mitotic Cells (%)', 26),
  ('CC(C)COc1ccc(CNC(=O)N(Cc2ccc(F)cc2)C2CCN(C)CC2)cc1', 'Population Mitotic Cells (%)', 28),
  ('O=C1[C@H](Cc2ccc(O)cc2)N2C(=O)CCN(C(=O)NCc3ccccc3)[C@H]2CN1Cc1cccc2ccccc12', 'Population Mitotic Cells (%)', 27),
  ('CC(=O)Nc1cccc2c1c(Sc1ccc(Cl)cc1)c(C)n2CC(=O)O', 'Population Mitotic Cells (%)', 20),
  ('O=C(NCCN1CCC(n2c(=O)[nH]c3cc(Cl)ccc32)CC1)c1ccc(F)cc1 [HALOPEMIDE]', 'Population Mitotic Cells (%)', 38),
  ('CC(C)c1noc(N2CCC(COc3ccc(-c4ccc(S(C)(=O)=O)cc4)nc3)CC2)n1', 'Population Mitotic Cells (%)', 0);

====

- Tested on: HEK-293T
- Assay info: Multiplex assay against HEK293T
- Assay type: toxicity, cell-based
- Condition summary: human, 48 h, 1 µM, compound concentration 1 uM, replicate 2
Listed next: entries and their corresponding Population Apoptotic (%).
Readout type: Population Apoptotic (%)

INSERT INTO assay_data (molecule, target_system, recorded_number) VALUES
  ('O=C(NCCN1CCC(n2c(=O)[nH]c3cc(Cl)ccc32)CC1)c1ccc(F)cc1 [HALOPEMIDE]', 'HEK-293T', 28),
  ('Br.CS(=O)(=O)Nc1c(O)ccc2c1CCCC2C1=NCCN1 (stereo not given)', 'HEK-293T', 29),
  ('CCCCCC(O)/C=C/[C@H]1C(=O)CC(O)C1C/C=C\CCCC(=O)O (stereo not given in full)', 'HEK-293T', 30),
  ('CC(/C=C1\SC(=S)N(CCCC(=O)Nc2ccc(C(=O)O)c(O)c2)C1=O)=C\c1ccccc1', 'HEK-293T', 19),
  ('CCc1cc2cc(NS(=O)(=O)c3ccc(C#N)cc3)ccc2n(CC)c1=O', 'HEK-293T', 38),
  ('N#Cc1c(Oc2cccc(OS(=O)(=O)CCCC(F)(F)F)c2)cccc1C(F)(F)F', 'HEK-293T', 56),
  ('CCCOc1ccc2[nH]cc(C3=CCNCC3)c2n1.Cl', 'HEK-293T', 38),
  ('Cc1cnc(-c2cc(N3CCN(C(=O)CCS(C)(=O)=O)CC3)ncc2Cl)c(C)c1', 'HEK-293T', 34),
  ('O=C1[C@H](Cc2ccc(O)cc2)N2C(=O)CCN(C(=O)NCc3ccccc3)[C@H]2CN1Cc1cccc2ccccc12', 'HEK-293T', 50),
  ('COc1ccccc1N1CCN(C[C@@H](C(=O)NC(C)(C)C)c2ccccc2)CC1.Cl.Cl', 'HEK-293T', 38);
